Test system: K-562 leukemia
Experiment: NCI-60 one-dose screen, 48 h
Conditions: 10 µM unless noted
The panel holds about 83,000 compounds, 20% with a hit somewhere; the sample as a whole holds those more often. Activity calls are given as the source filed them. How the source made its calls: active means growth percent below 10; inactive means the rest.
Outcome codes: active, inactive

- COMPOUND: "Cc1c(O)c(CN(CCCl)CCCl)cc(CN(CCCl)CCCl)c1O"
  TARGET_UNDER_TEST: "K-562 leukemia"
  CLASS_NAME: "inactive"
- COMPOUND: "O=[N+]([O-])c1c(Br)sc(Br)c1[N+](=O)[O-]"
  TARGET_UNDER_TEST: "K-562 leukemia"
  CLASS_NAME: "active"
- COMPOUND: "COc1ccc(-n2c(C)nc3cc(OC)c(OC)cc3c2=O)cc1OC"
  TARGET_UNDER_TEST: "K-562 leukemia"
  CLASS_NAME: "inactive"
- COMPOUND: "CC(=O)OC1CCC2C3CCC4=C/C(=N/OC(=O)c5ccc(N(CCCl)CCCl)cc5)CCC4(C)C3CC(C)C12 (stereo not given)"
  TARGET_UNDER_TEST: "K-562 leukemia"
  CLASS_NAME: "inactive"
- COMPOUND: "N#C[Se]Cc1cc(-c2ccccc2)n(-c2ccc(S(N)(=O)=O)cc2)n1"
  TARGET_UNDER_TEST: "K-562 leukemia"
  CLASS_NAME: "active"
- COMPOUND: "N#CC1(c2ccccc2)CCN(Cc2ccccc2)CC1"
  TARGET_UNDER_TEST: "K-562 leukemia"
  CLASS_NAME: "inactive"
- COMPOUND: "CCC1CC(O)c2c(O)c3c(c(O)c2C1O)C(=O)c1cccc(O)c1C3=O (stereo not given) (tested in a mixture with another compound)"
  TARGET_UNDER_TEST: "K-562 leukemia"
  CLASS_NAME: "active"
- COMPOUND: "C1CCC2(CC1)OOCNCOO2"
  TARGET_UNDER_TEST: "K-562 leukemia"
  CLASS_NAME: "active"
- COMPOUND: "CC[C@@H]1[C@@H](C)O[C@@](O)([C@@H](C)[C@H](O)[C@H](C)[C@H]2OC(=O)/C=C/C=C/[C@H](C)[C@@H]([C@@H](C)[C@@H](O)[C@H](C)[C@@]3(O)C[C@@H](O[C@H]4C[C@@H](O)[C@H](O)C(C)O4)[C@H](CC)[C@@H](C)O3)OC(=O)/C=C/C=C/[C@@H]2C)C[C@H]1O[C@@H]1C[C@@H](O)[C@H](O)C(C)O1 (stereo not given in full)"
  TARGET_UNDER_TEST: "K-562 leukemia"
  CLASS_NAME: "active"
- COMPOUND: "Cn1cc(-c2csc(-c3cn(CCCCN4CCCCC4)c4ccccc34)n2)c2cccnc21"
  TARGET_UNDER_TEST: "K-562 leukemia"
  CLASS_NAME: "active"
- COMPOUND: "COC(=O)[C@@H](C)C[C@H](Cc1ccccc1)NC(=O)c1nc([C@@H](C[C@H](C(C)C)N(C)C(=O)[C@@H](NC(=O)[C@H]2C[C@H](O)CCN2C)C(C)C)OC(C)=O)sc1C(C)C"
  TARGET_UNDER_TEST: "K-562 leukemia"
  CLASS_NAME: "active"
- COMPOUND: "ClCCN(CCCl)c1ccc(/C=N/Nc2ncnc3nc[nH]c23)cc1"
  TARGET_UNDER_TEST: "K-562 leukemia"
  CLASS_NAME: "inactive"
- COMPOUND: "Cn1cc(C2=C(c3cn(C4CCN(Cc5ccccn5)CC4)c4ccccc34)C(=O)NC2=O)c2ccccc21"
  TARGET_UNDER_TEST: "K-562 leukemia"
  CLASS_NAME: "inactive"
- COMPOUND: "C=CCn1cc(C=C2C(=O)N(C)C(=O)N(C)C2=O)c2ccccc21"
  TARGET_UNDER_TEST: "K-562 leukemia"
  CLASS_NAME: "inactive"
- COMPOUND: "COC(=O)[C@@H](C)C[C@H](Cc1ccccc1)NC(=O)c1cccc([C@@H](C[C@H](C(C)C)N(C)C(=O)[C@@H](NC(=O)[C@H]2CCCCN2C)C(C)C)OC(C)=O)n1"
  TARGET_UNDER_TEST: "K-562 leukemia"
  CLASS_NAME: "active"
- COMPOUND: "CC(C)(C)C(=O)OCOP(=O)(NCc1ccccc1)C1CCCN(O)C1=O (stereo not given)"
  TARGET_UNDER_TEST: "K-562 leukemia"
  CLASS_NAME: "inactive"
- COMPOUND: "O=C(CC1(O)C(=O)Nc2ccc(Cl)cc21)c1ccc(C(=O)NCC2CCC3(CC2)OOC2(CCCCC2)OO3)cc1 (stereo not given)"
  TARGET_UNDER_TEST: "K-562 leukemia"
  CLASS_NAME: "active"
- COMPOUND: "CC(=O)O[C@H](C[C@H](C(C)C)N(C)C(=O)[C@@H](NC(=O)[C@H]1CCCCN1C)C(C)C)c1nc(C(=O)N[C@@H](Cc2ccccc2)C[C@H](C)C(=O)O)c(C)s1"
  TARGET_UNDER_TEST: "K-562 leukemia"
  CLASS_NAME: "inactive"
- COMPOUND: "C[C@]12CC[C@H]3[C@@H](C[C@@H]4SC(Nc5ccccc5)=N[C@@]45CC(O)CC[C@]35C)[C@@H]1CCC2O (stereo not given in full)"
  TARGET_UNDER_TEST: "K-562 leukemia"
  CLASS_NAME: "active"
- COMPOUND: "COc1ccc(/C=C\\c2cc(OC)c(OC)c(OC)c2)cc1OCC(=O)Nc1nc2ccc(C(F)(F)F)cc2s1"
  TARGET_UNDER_TEST: "K-562 leukemia"
  CLASS_NAME: "inactive"
- COMPOUND: "CNC(=O)Oc1cccc(C(F)(F)F)c1"
  TARGET_UNDER_TEST: "K-562 leukemia"
  CLASS_NAME: "inactive"
- COMPOUND: "CC1=C([Te]c2ccc(O)cc2)C(=O)c2ccccc2C1=O"
  TARGET_UNDER_TEST: "K-562 leukemia"
  CLASS_NAME: "active"
- COMPOUND: "C=CC[n+]1ccc(-c2cc[n+](CC=C)cc2)cc1"
  TARGET_UNDER_TEST: "K-562 leukemia"
  CLASS_NAME: "inactive"
- COMPOUND: "C[C@]12CC[C@@H]3c4ccc(Oc5nc(N6CC6)nc(N6CC6)n5)cc4CC[C@H]3[C@@H]1CCC2=O"
  TARGET_UNDER_TEST: "K-562 leukemia"
  CLASS_NAME: "inactive"
- COMPOUND: "Cc1cc(-c2nc3cc(F)ccc3[se]2)cc(F)c1N"
  TARGET_UNDER_TEST: "K-562 leukemia"
  CLASS_NAME: "inactive"
- COMPOUND: "CCOC(=O)c1c(C)n(Cc2ccccc2)c2cc(CN(C)C)c(O)cc12"
  TARGET_UNDER_TEST: "K-562 leukemia"
  CLASS_NAME: "inactive"
- COMPOUND: "COc1cccc2c1c(C(=O)c1ccco1)cn2Cc1ccc(F)cc1"
  TARGET_UNDER_TEST: "K-562 leukemia"
  CLASS_NAME: "inactive"
- COMPOUND: "O=C([O][Hg][CH2]C1COCC([CH2][Hg][O]C(=O)c2ccccc2)O1)c1ccccc1 (stereo not given)"
  TARGET_UNDER_TEST: "K-562 leukemia"
  CLASS_NAME: "active"
- COMPOUND: "COC(=O)[C@@H](C)C[C@H](Cc1ccc2ccccc2c1)NC(=O)c1csc([C@@H](C[C@H](C(C)C)N(C)C(=O)[C@@H](NC(=O)[C@H]2CCCCN2C)C(C)C)OC(C)=O)n1"
  TARGET_UNDER_TEST: "K-562 leukemia"
  CLASS_NAME: "inactive"
- COMPOUND: "ClC1=C(Cl)C(Cl)(C2(Cl)C(Cl)=C(Cl)C(Cl)=C2Cl)C(Cl)=C1Cl"
  TARGET_UNDER_TEST: "K-562 leukemia"
  CLASS_NAME: "active"
- COMPOUND: "O=NN1CCCc2cccc(O)c21"
  TARGET_UNDER_TEST: "K-562 leukemia"
  CLASS_NAME: "active"
- COMPOUND: "CC(C)OC(=O)[C@H](C)NP(=O)(Oc1ccccc1)C1CCCN(O)C1=O (stereo not given in full)"
  TARGET_UNDER_TEST: "K-562 leukemia"
  CLASS_NAME: "inactive"
- COMPOUND: "CC(=O)OCc1cc[c]([Hg][Cl])o1"
  TARGET_UNDER_TEST: "K-562 leukemia"
  CLASS_NAME: "active"
- COMPOUND: "CCCCCCCCCCCCCC[P+](CCCCCC)(CCCCCC)CCCCCC"
  TARGET_UNDER_TEST: "K-562 leukemia"
  CLASS_NAME: "inactive"
- COMPOUND: "O=C1Nc2ccccc2C2c3cccn3-c3ccccc3CN12 (stereo not given)"
  TARGET_UNDER_TEST: "K-562 leukemia"
  CLASS_NAME: "inactive"
